Assay: chemical genetic growth profiling, strain panel (AID 1159580);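 note: tested at 20 µM; growth read once vehicle control cultures reached saturation at 30 °C; 1 = growth at the plate median or of vehicle wells; lower values mean less growth of the strain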
Conditions: S. cerevisiae deletion strains, growth OD, locus YHR013C, strain ard1
About 2,000 (36%) of roughly 5,500 compounds were called active. Inconclusive results (about 18%) are left out. Cut-off read from the data, not from the text of the source: active = normalized growth mostly below about 0.91 (no sharp cut-off); inconclusive = no clear call, values can overlap the other calls; inactive = mostly above about 0.92. The list shows a part of the results.
Would you mind answering with one of these outcomes? 1 = active, -1 = inactive

Solved entries:
O=c1[nH]c2ccccc2n1C1CCN(CCCC(c2ccc(F)cc2)c2ccc(F)cc2)CC1
-1
CC(C)=CCC/C(C)=C/COc1ccc2ccc(=O)oc2c1
-1
C=C1CC2C(CCC3(C)C(=O)CCC23)C2(C)C=CC(=O)C=C12 (stereo not drawn)
-1

Exam item: What classification did C[N+]1(C)C2CC[C@H]1CC(OC(=O)C(O)c1ccccc1)C2 (stereo partly drawn) end up with in this test?
Marked response: -1
